Recorded Z-score by entry
biological target: Human IP6K1 (Homo sapiens, UniProt Q92551); construct: GST (N, cleaved yes); made in house; host or cells: C43 E. coli, pGEX-6P-2; assay: IP6K1 high-throughput screen of the Sigma LOPAC (ADP-Glo Max, single point); type: biochemical; conditions: LOPAC single-point screen, Z-score against plate average and StDev;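 also: final compound concentration 10µM in 5% DMSO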
Sequence (Q92551 whole entry): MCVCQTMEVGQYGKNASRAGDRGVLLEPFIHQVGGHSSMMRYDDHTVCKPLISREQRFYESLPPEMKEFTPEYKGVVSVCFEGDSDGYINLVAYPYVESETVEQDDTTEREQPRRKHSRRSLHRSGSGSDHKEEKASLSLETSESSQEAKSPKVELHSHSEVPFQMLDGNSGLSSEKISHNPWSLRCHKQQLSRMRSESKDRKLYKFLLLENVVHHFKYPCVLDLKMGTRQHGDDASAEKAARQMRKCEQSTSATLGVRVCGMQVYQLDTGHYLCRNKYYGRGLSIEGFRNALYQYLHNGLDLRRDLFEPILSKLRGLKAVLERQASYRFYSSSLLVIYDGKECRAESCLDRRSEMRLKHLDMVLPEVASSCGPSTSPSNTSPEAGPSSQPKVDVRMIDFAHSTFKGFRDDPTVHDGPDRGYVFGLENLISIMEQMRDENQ
Structures can show the parent of a compound that is named as a salt.

MOLECULE	Z-score
NC(Cc1cccc(-c2ccccc2CP(=O)(O)O)c1)C(=O)O (stereo not drawn)	0.06629
COc1ccc2[nH]c(I)c(CCNC(C)=O)c2c1 [2-Iodomelatonin]	0.157
N[C@@H](CCCC(=O)O)C(=O)O [L-2-aminoadipic acid]	0.2265
CCCCCCCCCCCCCCSCC(=O)O [Tetradecylthioacetic acid]	0.1154
CNCCC=C1c2ccccc2CCc2ccccc21 [Nortriptyline hydrochloride]	0.01873
CN(C)c1ccc(O)c2c1C[C@H]1C[C@H]3[C@H](N(C)C)C(O)=C(C(N)=O)C(=O)[C@@]3(O)C(O)=C1C2=O [Minocycline hydrochloride]	0.2125
N[C@@H]1C[C@H]1c1ccccc1 [Tranylcypromine hydrochloride]	-0.08894
COc1ccc(C2CNC(=O)C2)cc1OC1CCCC1 (stereo not drawn) [Rolipram]	0.2955
Br.CCCN(CCC)C1CCc2cccc(O)c2C1 (racemic) [(±)-8-Hydroxy-DPAT hydrobromide]	0.08732
CNC[C@H](O)c1cccc(O)c1 [Phenylephrine hydrochloride]	0.2792
CC[C@@H](CO)NC(=O)[C@@H]1C=C2c3cccc4c3c(cn4C)C[C@H]2N(C)C1 [Methysergide maleate]	0.2499
C[N+]1(C)[C@@H]2CC(OC(=O)[C@H](CO)c3ccccc3)C[C@H]1[C@@H]1O[C@@H]12.O=[N+]([O-])[O-] (single isomer, unassigned; (-)) [(-)-Scopolamine methyl nitrate]	0.1966
N=C(N)NCCC[C@H](N)C(=O)O [L-Arginine]	0.1742
CCCCCCCCCCCCCC(=O)O[C@@H]1[C@@H](C)[C@@]2(O)[C@@H](C=C(CO)C[C@]3(O)C(=O)C(C)=C[C@@H]23)[C@@H]2C(C)(C)[C@]12OC(C)=O [Phorbol 12-myristate 13-acetate]	0.3243
CC1=C(CC(=O)O)c2cc(F)ccc2/C1=C\c1ccc(S(C)(=O)=O)cc1 [Sulindac sulfone]	0.07756
N/C(=N\C(=O)c1nc(Cl)c(N)nc1N)NCc1ccc(Cl)c(Cl)c1 [3 ,4 -Dichlorobenzamil]	0.2593
Cc1[nH]c2ccc(O)cc2c1CCN.O=C(O)/C=C\C(=O)O [2-Methyl-5-hydroxytryptamine maleate]	0.3264
CN(N=O)c1cc(O)ccc1O [Dephostatin]	0.1615
CN(C)CCCC1(c2ccc(F)cc2)OCc2cc(C#N)ccc21 (stereo not drawn) [Citalopram hydrobromide]	0.05951
Cn1c(=O)c2[nH]cnc2n(C)c1=O.Cn1c(=O)c2[nH]cnc2n(C)c1=O.NCCN [Aminophylline ethylenediamine]	0.0001585
N[C@@H](CS(=O)O)C(=O)O [L-Cysteinesulfinic Acid]	0.005266
NS(=O)(=O)Cc1noc2ccccc12 [Zonisamide sodium]	0.02763
Oc1cc(-c2ccccc2)nc2nc(Cl)ccc12	-0.01534
Br.NCc1cc(O)no1 [Muscimol hydrobromide]	-0.08835
NC[C@@H]1O[C@H](O[C@H]2[C@@H](O)[C@H](O[C@@H]3[C@@H](O)[C@H](N)C[C@H](N)[C@H]3O[C@H]3O[C@H](CO)[C@@H](O)[C@H](O)[C@H]3N)O[C@@H]2CO)[C@H](N)[C@@H](O)[C@@H]1O [Paromomycin sulfate]	-0.05028
C[C@]12CCC(=O)C=C1CC[C@@H]1[C@@H]2CC[C@@]2(C)[C@H]1CC[C@]2(O)C(=O)CO [Cortexolone]	-0.08719
Cl.O=C(CCCN1CCC2(CC1)C(=O)N(CCc1ccc(N=C=S)cc1)CN2c1ccccc1)c1ccc(F)cc1	0.002603
NCCSSCCN [Cystamine dihydrochloride]	0.04666
CCCNCC(O)COc1ccccc1C(=O)CCc1ccccc1 (stereo not drawn) [Propafenone hydrochloride]	-0.0347
CCCNC(=O)NS(=O)(=O)c1ccc(Cl)cc1 [Chlorpropamide]	0.112
CN(C)C(=O)Oc1cccc([N+](C)(C)C)c1 [Neostigmine bromide]	0.2593
NC(=O)CN1CC(O)CC1=O (stereo not drawn) [Oxiracetam]	0.1108
Cl.N=C(N)NN [Aminoguanidine hydrochloride]	0.1462
